Values compiled from patent US9944607B2.

- Test system: Candida albicans CaCi-2
- assay-overview: Primary assay: C. albicans CaCi-2 growth inhibition (Alamar Blue)
- Assay type: cell-based
- experimental-parameters: Table 7; n = 3; 48 hours; tested up to 26 μM
attribute-measured: Growth Inhibition Activity, IC50 (μM), C. albicans (n = 3) CaCi-2

Solved entries (count: 4):
Cc1ccc(N2C(=O)C3(CCCCC3)NC2=S)cc1 :: inactive
Cc1ccc(N2CC(=O)NC2=O)cc1 :: inactive
Cc1ccc(N2C(=S)NC(=O)C23CCCC3)cc1 :: inactive
O=C1NC(=S)N(c2ccccc2)C12CCCCC2 :: inactive

Alright, here's another molecule for you.
Input line: Recorded Growth Inhibition Activity, IC50 (μM), C. albicans (n = 3) CaCi-2 of Cc1ccc(N2C(=O)C(=O)NC2=S)cc1 , please.
Output line: inactive
